Overview of recorded CC50 for various compounds
test: Cytotoxicity against MDCK cells assessed as reduction in cell viability; type: toxicity, cell-based, Canis lupus familiaris; details: dog

Use the examples below as a reference point.
>  <compound>
CC(=O)c1cc(O)ccc1O[C@@H]1O[C@H](CO)[C@@H](O)[C@H](OC(=O)c2cc(O)c(O)c(O)c2)[C@H]1OC(=O)c1cc(O)c(O)c(O)c1

>  <CC50>
> 1000 µM

$$$$
>  <compound>
CC(=O)c1cc(O)ccc1O[C@@H]1O[C@H](COC(=O)c2cc(O)c(O)c(O)c2)[C@@H](O)[C@H](OC(=O)c2cc(O)c(O)c(O)c2)[C@H]1O

>  <CC50>
964 µM

$$$$

Attention now shifts to the item below.
Data request: Entry NC(=O)c1nc(F)cnc1O [FAVIPIRAVIR] has what CC50?
Data returned: > 1000 µM

---

Overview of recorded CC50 at 72 h for various compounds
test: Cytotoxicity against MDCK cells assessed as reduction in cell viability measured after 72 hrs by fluorescence based assay; assay type: toxicity, Canis lupus familiaris; conditions: dog

>  <compound>
CN(C)S(=O)(=O)N1CCCC(CNC(=O)c2cccc(C(F)(F)F)c2)C1 (stereo not drawn)

>  <recorded-measurement>
> 100 µM

$$$$

Data request: Entry CCCCN1Cc2ccccc2Oc2ccccc2S1(=O)=O has what CC50 at 72 h?
Data returned: > 100 µM

Data request: Next: Cc1cccc(N2CCN(Cc3n[nH]c(=O)n3Cc3cccc(F)c3)CC2)c1C
Data returned: > 100 µM

---

assay: Cytotoxicity against MDCK cells incubated for 72 hrs by CCK-8 assay; type: toxicity, cell-based, Canis lupus familiaris; details: dog
quantity-name: CC50 at 72 h (µM)
Your answer is read as µM, so omit the unit and give the number.

Data request: Entry O[C@H]1[C@H]2c3cc4c(cc3CN3CCC(=C[C@@H]1O)[C@H]23)OCO4 [LYCORINE] has what CC50 at 72 h?
Data returned: 20.9

---

molecular target: UniProt B4URF0
Sequence (B4URF0 whole entry): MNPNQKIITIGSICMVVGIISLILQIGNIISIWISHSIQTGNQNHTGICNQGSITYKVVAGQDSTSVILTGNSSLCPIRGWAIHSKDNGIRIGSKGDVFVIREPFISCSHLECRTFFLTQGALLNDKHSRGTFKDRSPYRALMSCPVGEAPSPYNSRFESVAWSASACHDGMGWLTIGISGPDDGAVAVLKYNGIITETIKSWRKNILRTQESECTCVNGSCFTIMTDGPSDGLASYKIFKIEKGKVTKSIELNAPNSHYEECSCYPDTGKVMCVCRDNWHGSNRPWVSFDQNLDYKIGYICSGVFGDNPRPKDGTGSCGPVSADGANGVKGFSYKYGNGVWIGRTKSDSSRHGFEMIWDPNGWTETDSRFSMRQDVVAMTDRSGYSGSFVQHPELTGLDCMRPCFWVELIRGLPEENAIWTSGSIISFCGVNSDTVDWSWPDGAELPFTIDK
quantity-name: pIC50
Scale for pIC50: -log10 of concentration given in mol/L; no unit attached.

Data request: Entry Cc1onc(-c2ccccc2Cl)c1C(=O)N1CCN(c2ccc([N+](=O)[O-])cc2Cl)CC1 has what pIC50?
Data returned: 7.00

---

assay: Cytotoxicity against MDCK cells; assay type: toxicity, cell-based, Canis lupus familiaris; conditions: dog
quantity-name: CC50 (µM)
Your answer is read as µM, so omit the unit and give the number.

>  <smiles-str>
COc1cccc(OC)c1C(=O)/C=C/c1nc(C)c(C)nc1C

>  <CC50, µM>
41.5

$$$$

Attention now shifts to the item below.
Data request: Entry C=C1Cc2cc(C(F)(F)F)ccc2C(=O)NCC(C)(C)/C(=N/OC)CCCCOC1=O has what CC50?
Data returned: 211

---

assay: Cytotoxicity against MDCK cells assessed as reduction in cell viability measured after 72 hrs by MTT assay; type: toxicity, cell-based, Canis lupus familiaris; details: dog
quantity-name: CC50 at 72 h (µM)
Your answer is read as µM, so omit the unit and give the number.

Data request: Entry Cc1cc(C(=O)NC(C)C23CC4CC(CC(C4)C2)C3)c(C)o1 (configuration not stated) has what CC50 at 72 h?
Data returned: 73

---

test system: Influenza B virus; experiment: Antiviral activity against Influenza B virus B/Victoria; type: functional, organism-based
quantity-name: EC50 (µM)
Your answer is read as µM, so omit the unit and give the number.

Data request: Entry COc1cccc(OC)c1C(=O)/C=C/c1nc(C)c(C)nc1C has what EC50?
Data returned: 3.13

---

test system: Influenza A virus; assay: Antiviral activity against influenza A virus A/Brisbane/59/2009 (H1N1) infected in MDCK cells assessed as reduction in cytopathic effect by fluorescence based analysis; type: functional, organism-based
quantity-name: pEC50
Scale for pEC50: -log10 of concentration given in mol/L; no unit attached.

Data request: Entry Cc1onc(-c2ccccc2Cl)c1C(=O)N1CCN(c2ccc([N+](=O)[O-])cc2Cl)CC1 has what pEC50?
Data returned: 5.92

---

tested on: Influenza A virus; test: Antiviral activity against Influenza A virus A/California/7/2009 (H1N1) infected in MDCK cells measured after 24 hrs post infection; assay type: functional, organism-based
quantity-name: pEC50
Scale for pEC50: -log10 of concentration given in mol/L; no unit attached.

Data request: Entry COc1ccccc1-c1cc2c(Nc3ccccc3)nccc2n1C has what pEC50?
Data returned: 5.93

---

test: Cytotoxicity against MDCK cell incubated for 72 hrs by EZ-Cytox cell viability assay; assay type: toxicity, cell-based, Canis lupus familiaris; settings: dog, MDCK cells
quantity-name: CC50 at 72 h (µM)
Your answer is read as µM, so omit the unit and give the number.

Data request: Entry COc1ccccc1-c1cc2c(Nc3ccccc3)nccc2n1C has what CC50 at 72 h?
Data returned: 27.2

---

assay: Cytotoxicity against HEK293T cells incubated for 48 hrs by Cell Titer-Glo assay; format: toxicity, cell-based, HEK-293T; settings: human
quantity-name: CC50 at 48 h

Data request: Entry Cc1onc(-c2ccccc2Cl)c1C(=O)N1CCN(c2ccc([N+](=O)[O-])cc2Cl)CC1 has what CC50 at 48 h?
Data returned: > 100 µM
